Cited source: patent US20160297884A1

Collected kon values appear next to each entry.
# ASSAY_SYSTEM: T1, Human BCMA (human, UniProt Q02223 1-54, limits assumed)
# T1 construct: Soluble analyte in SPR; construct not described; also called huBCMA; B-cell maturation antigen
# T1 sequence (looked up): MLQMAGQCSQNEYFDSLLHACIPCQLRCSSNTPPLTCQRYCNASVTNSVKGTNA
# PROCEDURE_TEXT: SPR, IgG immobilised, 37 C

BINDER	kon (M⁻¹ s⁻¹)
L3.PY/L1.PH/H3.AQ (antibody, V domains shown, IgG) VH: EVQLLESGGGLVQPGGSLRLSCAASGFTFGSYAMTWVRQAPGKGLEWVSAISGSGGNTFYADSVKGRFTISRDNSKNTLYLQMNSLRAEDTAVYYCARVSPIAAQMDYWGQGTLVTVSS VL: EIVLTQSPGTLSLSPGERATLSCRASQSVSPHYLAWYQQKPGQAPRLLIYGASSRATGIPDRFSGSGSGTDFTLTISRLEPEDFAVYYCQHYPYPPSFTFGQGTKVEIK	3.08e+06
L3.PY/L1.PS/H2.DY (antibody, V domains shown, IgG) VH: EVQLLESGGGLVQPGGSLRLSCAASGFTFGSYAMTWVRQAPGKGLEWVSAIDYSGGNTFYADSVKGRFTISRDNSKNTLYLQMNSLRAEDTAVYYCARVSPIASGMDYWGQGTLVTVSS VL: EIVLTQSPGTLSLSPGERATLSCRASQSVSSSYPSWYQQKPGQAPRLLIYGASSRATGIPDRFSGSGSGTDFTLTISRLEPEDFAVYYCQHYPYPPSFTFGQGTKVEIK	3.22e+06
L3.PY/L3.KF/P6E01 (antibody, V domains shown, IgG) VH: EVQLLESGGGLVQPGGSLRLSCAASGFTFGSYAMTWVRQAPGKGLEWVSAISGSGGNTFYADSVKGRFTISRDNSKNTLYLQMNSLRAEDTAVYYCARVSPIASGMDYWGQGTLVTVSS VL: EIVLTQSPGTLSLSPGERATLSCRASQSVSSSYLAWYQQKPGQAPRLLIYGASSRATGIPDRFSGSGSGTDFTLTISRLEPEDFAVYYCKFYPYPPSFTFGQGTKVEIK	2.88e+06
L3.PY/L1.FF/H2.DY (antibody, V domains shown, IgG) VH: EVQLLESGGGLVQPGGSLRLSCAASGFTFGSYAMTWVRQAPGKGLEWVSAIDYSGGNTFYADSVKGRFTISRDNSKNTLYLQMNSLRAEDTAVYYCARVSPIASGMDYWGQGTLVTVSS VL: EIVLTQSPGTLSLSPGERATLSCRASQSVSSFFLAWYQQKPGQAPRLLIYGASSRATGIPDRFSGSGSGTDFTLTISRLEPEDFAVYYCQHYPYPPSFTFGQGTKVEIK	4.14e+06
L3.PY/L1.FF/H3.AE (antibody, V domains shown, IgG) VH: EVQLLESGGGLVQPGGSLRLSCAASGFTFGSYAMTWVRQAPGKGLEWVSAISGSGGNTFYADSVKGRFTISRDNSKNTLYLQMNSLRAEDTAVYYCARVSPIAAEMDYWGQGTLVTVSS VL: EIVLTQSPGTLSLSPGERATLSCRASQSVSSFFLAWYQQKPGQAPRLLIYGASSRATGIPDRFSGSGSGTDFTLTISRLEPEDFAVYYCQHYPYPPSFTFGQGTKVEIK	3.82e+06
